- assayed-target: T1, recombinant human BCMA (ELISA antigen, construct not specified) (human, UniProt Q02223 1-54)
- T1 construct: Fc 1-51; Fc/His 1-51; Fc 4-48) was coated in these ELISAs; also called recombinant BCMA; recombinant protein
- T1 sequence: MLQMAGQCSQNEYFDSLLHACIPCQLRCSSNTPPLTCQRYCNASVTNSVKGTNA
- test-protocol: ELISA on recombinant BCMA
Assign EC50 to each entry below.
Express it in pM; write the number only.

# EC50 of mutant antibody 5D5 LM4 (antibody, V domains shown, Light chain CDR mutant of 5D5 (IgG1); heavy chain as 5D5) VH: EVQLLESGGGLVQPGGSLRLSCAASGFTFSDYGLSWVRQAPGKGLEWVSLIDSSGSSTFYADSVKGRFTISRDNSKNTLYLQMNSLRAEDTAVYYCAKEHGLFDSWGQGTLVTVSS VL: EIVLTQSPGTLSLSPGERATLSCKASQDIDDAINWYQQKPGQAPRLLIYDASLRATGIPDRFSGSGSGTDFTLTISRLEPEDFAVYYCQQSLRTPITFGQGTKLEIKR = 70.8

# EC50 of mutant antibody 5A6 LM7 (antibody, V domains shown, Light chain CDR mutant of 5A6 (IgG1); heavy chain as 5A6) VH: EVQLLESGGGLVQPGGSLRLSCAASGFTFSNYGVHWVRQAPGKGLEWVSYISYSGGTYYNPSLKSRFTISRDNSKNTLYLQMNSLRAEDTAVYYCARDSDDFGFDYWGQGTLVTVSS VL: QSVLTQPPSASGTPGQRVTISCQGDALRSYYVNWYQQLPGTAPKLLIYDHSKRPTGVPDRFSGSKSGTSASLAISGLRSEDEADYYCQSYESSTVVFGGGTKLTVLG = 105

# EC50 of mutant antibody 5D5 LM2 (antibody, V domains shown, Light chain CDR mutant of 5D5 (IgG1); heavy chain as 5D5) VH: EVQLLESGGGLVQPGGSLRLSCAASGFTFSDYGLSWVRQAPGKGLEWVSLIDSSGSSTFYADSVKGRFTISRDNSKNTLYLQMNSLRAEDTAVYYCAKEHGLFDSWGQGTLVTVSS VL: EIVLTQSPGTLSLSPGERATLSCKASQDIDEDINWYQQKPGQAPRLLIYDASLRATGIPDRFSGSGSGTDFTLTISRLEPEDFAVYYCQQSLRTPITFGQGTKLEIKR = 85.8

# EC50 of mutant antibody 5A6 LM5 (antibody, V domains shown, Light chain CDR mutant of 5A6 (IgG1); heavy chain as 5A6) VH: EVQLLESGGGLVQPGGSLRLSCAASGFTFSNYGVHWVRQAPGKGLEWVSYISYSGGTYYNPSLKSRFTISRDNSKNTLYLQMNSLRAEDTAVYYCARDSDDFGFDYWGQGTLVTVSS VL: QSVLTQPPSASGTPGQRVTISCQGESLRSYYVNWYQQLPGTAPKLLIYDHSKRPTGVPDRFSGSKSGTSASLAISGLRSEDEADYYCQSYESSTVVFGGGTKLTVLG = 103

# EC50 of mutant antibody 5A6 LM6 (antibody, V domains shown, Light chain CDR mutant of 5A6 (IgG1); heavy chain as 5A6) VH: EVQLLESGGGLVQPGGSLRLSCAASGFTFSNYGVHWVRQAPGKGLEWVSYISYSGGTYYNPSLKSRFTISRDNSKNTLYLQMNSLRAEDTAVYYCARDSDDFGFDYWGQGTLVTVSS VL: QSVLTQPPSASGTPGQRVTISCQGESLRSYYVNWYQQLPGTAPKLLIYDHSKRPTGVPDRFSGSKSGTSASLAISGLRSEDEADYYCQSYDASTVVFGGGTKLTVLG = 53.7

# EC50 of mutant antibody 5A6 LM3 (antibody, V domains shown, Light chain CDR mutant of 5A6 (IgG1); heavy chain as 5A6) VH: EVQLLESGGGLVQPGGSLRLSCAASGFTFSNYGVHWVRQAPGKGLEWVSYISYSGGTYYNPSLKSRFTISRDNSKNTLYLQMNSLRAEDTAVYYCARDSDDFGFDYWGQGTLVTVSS VL: QSVLTQPPSASGTPGQRVTISCQGDSLRSYYVNWYQQLPGTAPKLLIYDHSKRPTGVPDRFSGSKSGTSASLAISGLRSEDEADYYCQSYESSTVVFGGGTKLTVLG = 133

# EC50 of mutant antibody 5A6 LM4 (antibody, V domains shown, Light chain CDR mutant of 5A6 (IgG1); heavy chain as 5A6) VH: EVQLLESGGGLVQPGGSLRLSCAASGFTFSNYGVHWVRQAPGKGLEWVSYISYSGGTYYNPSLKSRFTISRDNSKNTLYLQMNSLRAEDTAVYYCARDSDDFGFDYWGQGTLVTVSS VL: QSVLTQPPSASGTPGQRVTISCQGDSLRSYYVNWYQQLPGTAPKLLIYDHSKRPTGVPDRFSGSKSGTSASLAISGLRSEDEADYYCQSYDASTVVFGGGTKLTVLG = 82.3

# EC50 of mutant antibody 5D5 LM3 (antibody, V domains shown, Light chain CDR mutant of 5D5 (IgG1); heavy chain as 5D5) VH: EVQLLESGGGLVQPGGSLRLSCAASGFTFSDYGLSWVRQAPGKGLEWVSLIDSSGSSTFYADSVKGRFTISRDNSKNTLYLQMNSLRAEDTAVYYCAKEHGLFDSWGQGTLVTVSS VL: EIVLTQSPGTLSLSPGERATLSCKASQDIDADINWYQQKPGQAPRLLIYDASLRATGIPDRFSGSGSGTDFTLTISRLEPEDFAVYYCQQSLRTPITFGQGTKLEIKR = 59.3
